Assay: ATG_TCF_b_cat_CIS: Attagene CIS-FACTORIAL HepG2 Assay for human T-Cell-Factor with beta-catenin (TCF/b-cat) (AID 2282965)
Details: HepG2 TCF/beta-catenin cis-reporter transcription, actives raise or lower the signal
Active and inactive are the calls of the source. Rule for the calls: active = hit-call score of the fitted dose curve at least 0.9, where 1 is the maximum; inactive = score below 0.9.
Could you please pick one outcome from this set? active, inactive

>  <compound>
N#Cc1nc(Cl)c(Cl)c(Cl)c1Cl

>  <label-class>
active

$$$$
>  <compound>
C#C[C@]1(O)CC[C@H]2[C@@H]3CCC4=Cc5oncc5C[C@]4(C)[C@H]3CC[C@@]21C

>  <label-class>
active

$$$$

What did this assay record as the result for C[C@]12CC[C@H]3[C@@H](CCC4=CC(=O)CC[C@@]43C)[C@@H]1CC[C@@H]2C(=O)CO ?
active

What did this assay record as the result for COc1cc2ncnc(Nc3cccc(Cl)c3)c2cc1OC ?
active

What did this assay record as the result for CNCCO ?
inactive

What did this assay record as the result for CC(C)C(C)(C)C(C)(C)C(C)(C)S ?
inactive

What did this assay record as the result for CC(=O)O[C@]1(C(C)=O)CC[C@H]2[C@@H]3C[C@H](C)C4=CC(=O)CC[C@]4(C)[C@H]3CC[C@@]21C ?
inactive

What did this assay record as the result for CC1(C)CCC(C)(C)c2cc(C(=O)Nc3ccc(C(=O)O)cc3)ccc21 ?
active

What did this assay record as the result for O=C=NC1CCC(CC2CCC(N=C=O)CC2)CC1 (stereo not drawn) ?
active

What did this assay record as the result for COc1ccc(O)cc1 ?
inactive

What did this assay record as the result for CC(C)=CCCC(C)=CCCC(C)=CCO ?
inactive

What did this assay record as the result for CC(O)C(C)O (stereo not drawn) ?
inactive

What did this assay record as the result for O=C(O)c1cccc([N+](=O)[O-])c1 ?
inactive

====

Target: Aryl hydrocarbon receptor (Homo sapiens)
Test: ATG_Ahr_CIS: Attagene CIS-FACTORIAL HepG2 Assay for human Aryl Hydrocarbon Receptor (Ahr) (AID 2282930)
Details: HepG2 AhR cis-factorial reporter transcription; actives raise or lower the signal
The source made the active and inactive calls. How the source made its calls: active means hit-call score of the fitted dose curve at least 0.9, where 1 is the maximum; inactive means score below 0.9.
Could you please pick one outcome from this set? true (active), false (inactive)

>  <molecule>
NNc1nc(-c2ccc(N)cc2)cs1

>  <label-class>
false

$$$$
>  <molecule>
C=C(C)C(=O)O[C@H]1C[C@@H]2CC[C@@]1(C)C2(C)C

>  <label-class>
true

$$$$
>  <molecule>
CC1COc2ccccc2N1C(=O)C(Cl)Cl (configuration not stated)

>  <label-class>
false

$$$$
>  <molecule>
CC1(C)CCC(C)(C)c2cc(C(=O)Nc3ccc(C(=O)O)cc3)ccc21

>  <label-class>
false

$$$$
>  <molecule>
Clc1nc(C(Cl)(Cl)Cl)c(Cl)c(Cl)c1Cl

>  <label-class>
true

$$$$
>  <molecule>
CC(C)OP(=O)(CP(=O)(OC(C)C)OC(C)C)OC(C)C

>  <label-class>
false

$$$$
>  <molecule>
CC(C)=CCC[C@](C)(O)[C@@H]1CC=C(C)CC1

>  <label-class>
false

$$$$
>  <molecule>
CC(C)=CCO

>  <label-class>
false

$$$$
>  <molecule>
Nc1ccc(S(N)(=O)=O)cc1

>  <label-class>
false

$$$$
>  <molecule>
CCCC(C)C=O (configuration not stated)

>  <label-class>
false

$$$$

What did this assay record as the result for O=C1CCCCCCCCCCCCCCO1 ?
true

What did this assay record as the result for CCOc1ccccc1OCC ?
false

What did this assay record as the result for CCCC(=O)C(C)=O ?
false

What did this assay record as the result for CCCCO ?
false

What did this assay record as the result for CC(C#N)(CCC(=O)O)N=NC(C)(C#N)CCC(=O)O (configuration not stated) ?
false

What did this assay record as the result for O=C1CCCCCCCCCCOCCCCO1 ?
false

What did this assay record as the result for c1cc(C(c2ccc(OCC3CO3)cc2)c2ccc(OCC3CO3)cc2)ccc1OCC1CO1 (configuration not stated) ?
false

What did this assay record as the result for O=C(O)Cc1cccc2ccccc12 ?
false

====

Target: Nuclear receptor subfamily 1 group I member 2 (Homo sapiens) (UniProt O75469)
Sequence (O75469 whole entry, looked up): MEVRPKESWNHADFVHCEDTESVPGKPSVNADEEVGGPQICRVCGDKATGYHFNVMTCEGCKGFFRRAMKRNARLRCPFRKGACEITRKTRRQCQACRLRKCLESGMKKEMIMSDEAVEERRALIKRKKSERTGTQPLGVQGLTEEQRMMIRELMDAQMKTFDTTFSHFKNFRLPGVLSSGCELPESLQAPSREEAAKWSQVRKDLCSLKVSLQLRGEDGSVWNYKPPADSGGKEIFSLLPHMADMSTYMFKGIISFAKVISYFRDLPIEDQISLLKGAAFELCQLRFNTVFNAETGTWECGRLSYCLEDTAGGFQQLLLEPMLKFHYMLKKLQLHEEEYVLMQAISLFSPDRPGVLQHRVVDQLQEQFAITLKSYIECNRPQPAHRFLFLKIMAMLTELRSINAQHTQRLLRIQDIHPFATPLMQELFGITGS
Assay: ATG_PXR_TRANS: Attagene TRANS-FACTORIAL HepG2 Assay for human Pregnane X Receptor (PXR) (AID 2283008)
Records with an inconclusive call do not appear. Active and inactive are the calls of the source. How the source made its calls: active means hit-call score of the fitted dose curve at least 0.9, where 1 is the maximum; inconclusive means response in the unintended direction; inactive means score below 0.9.
Could you please pick one outcome from this set? active, inactive

What did this assay record as the result for CCCCCCCCCCCCCOS(=O)(=O)O ?
inactive

What did this assay record as the result for CCn1c2ccccc2c2cc(N)ccc21 ?
active

What did this assay record as the result for CC(=O)C=CC1=C(C)CCCC1(C)C ?
active

What did this assay record as the result for O=Cc1ccc(F)cc1 ?
inactive

What did this assay record as the result for C#C[C@]1(O)CC[C@H]2[C@@H]3CCC4=Cc5oncc5C[C@]4(C)[C@H]3CC[C@@]21C ?
active

What did this assay record as the result for Clc1ccc2c(c1)C(N1CCNCC1)=Nc1ccccc1O2 ?
active

====

Test: ATG_TA_CIS: Attagene CIS-FACTORIAL HepG2 Assay for human TA Basal Promoter (AID 2282964)
Settings: HepG2 Attagene CIS-factorial TA basal promoter reporter; actives raise or lower the signal
Calls of active or inactive are those of the source. How the source made its calls: active means hit-call score of the fitted dose curve at least 0.9, where 1 is the maximum; inactive means score below 0.9.
Could you please pick one outcome from this set? active, inactive

>  <compound>
OC1C(O)C(O)C(O)C(O)C1O (centres undefined)

>  <label-class>
inactive

$$$$
>  <compound>
CC1(C)CCC(C)(C)c2cc(C(=O)Nc3ccc(C(=O)O)cc3)ccc21

>  <label-class>
active

$$$$
>  <compound>
CC(=O)C(C)=O

>  <label-class>
inactive

$$$$
>  <compound>
NNc1nc(-c2ccc(N)cc2)cs1

>  <label-class>
inactive

$$$$
>  <compound>
COCCOCCOCCOCCOCCO

>  <label-class>
inactive

$$$$

With those in mind, consider the next compound.
What did this assay record as the result for C[Si](O[Si](C)(C)C)O[Si](C)(C)C ?
inactive

====

Assay: CCTE_Simmons_CellTiterGLO_HEK293T: Viability Assessment in CCTE's Assays for Thyroperoxidase (TPO) Inhibition, Simmons Lab (AID 2283665)
Inconclusive results are not listed. The source made the active and inactive calls. How the source made its calls: active means hit-call score of the fitted dose curve at least 0.9, where 1 is the maximum; inconclusive means response in the unintended direction; inactive means score below 0.9.
Could you please pick one outcome from this set? active, inactive

Here are 5 molecules together with their reported answers.
>  <molecule>
COc1cc(C(C)(C)C)c(O)c(C(C)(C)C)c1

>  <label-class>
active

$$$$
>  <molecule>
CCCCc1ccc(N)cc1

>  <label-class>
active

$$$$
>  <molecule>
CC(C)c1cccc(O)c1

>  <label-class>
inactive

$$$$
>  <molecule>
Cc1ccc(O)c(C(C)(C)C)c1

>  <label-class>
active

$$$$
>  <molecule>
CSc1nc(NC2CC2)nc(NC(C)(C)C)n1

>  <label-class>
inactive

$$$$

What did this assay record as the result for O=c1cc(-c2ccccc2)oc2cc(O)cc(O)c12 ?
inactive

What did this assay record as the result for CC(C)=CCCC(C)CC=O (centres undefined) ?
inactive

What did this assay record as the result for CCCCCCCCCCCCCOS(=O)(=O)O ?
active

What did this assay record as the result for Cc1ccc(C(C)C)cc1O ?
inactive

====

Molecular target: Peroxisome proliferator-activated receptor gamma (Homo sapiens) (UniProt P37231)
Sequence (P37231 whole entry, looked up): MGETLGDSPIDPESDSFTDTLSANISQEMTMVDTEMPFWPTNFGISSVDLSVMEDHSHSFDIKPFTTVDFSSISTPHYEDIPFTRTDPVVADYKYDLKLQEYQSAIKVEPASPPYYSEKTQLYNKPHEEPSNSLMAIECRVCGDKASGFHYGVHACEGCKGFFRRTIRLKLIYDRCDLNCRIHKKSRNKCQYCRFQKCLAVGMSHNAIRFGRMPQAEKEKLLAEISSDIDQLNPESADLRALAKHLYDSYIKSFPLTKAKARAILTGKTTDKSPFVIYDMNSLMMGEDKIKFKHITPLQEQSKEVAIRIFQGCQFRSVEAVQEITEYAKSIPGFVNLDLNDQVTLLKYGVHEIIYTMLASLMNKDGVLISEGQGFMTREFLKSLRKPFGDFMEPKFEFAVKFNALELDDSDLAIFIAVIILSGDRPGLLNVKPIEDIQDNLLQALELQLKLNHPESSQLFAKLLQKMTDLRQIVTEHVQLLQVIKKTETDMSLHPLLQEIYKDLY
Experiment: OT_PPARg_PPARgSRC1_0480: Odyssey Thera (OT) 8-hour Protein-Complementation Assay for Peroxisome Proliferator-activated Receptor Gamma / SRC-1 Co-activator (AID 2283387);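 note: nuclear to cytoplasmic split Venus YFP fluorescence ratio reporting PPARg SRC-1 interaction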
Inconclusive results are not listed. Activity calls are given as the source filed them. How the source made its calls: active means hit-call score of the fitted dose curve at least 0.9, where 1 is the maximum; inconclusive means response in the unintended direction; inactive means score below 0.9.
measured-endpoint: outcome

Here is how some compounds turned out for outcome.
>  <compound>
C=CC[N+](C)(C)CC=C

>  <value-observed>
inactive

$$$$
>  <compound>
O=c1cc(-c2ccccc2)oc2cc(O)cc(O)c12

>  <value-observed>
inactive

$$$$
>  <compound>
C=CCOc1nc(OCC=C)nc(OCC=C)n1

>  <value-observed>
inactive

$$$$
>  <compound>
c1ccc(CCCc2ccccn2)cc1

>  <value-observed>
inactive

$$$$
>  <compound>
O=C[C@@H](O)[C@H](O)[C@H](O)CO

>  <value-observed>
inactive

$$$$
>  <compound>
CC1CC(OC(=O)c2ccccc2O)CC(C)(C)C1 (centres undefined)

>  <value-observed>
inactive

$$$$
>  <compound>
CCCCCCCCC

>  <value-observed>
inactive

$$$$
>  <compound>
O=C(Cl)c1cccc(C(=O)Cl)c1

>  <value-observed>
inactive

$$$$

What does the record list as outcome for c1ccc2[nH]ccc2c1 ?
inactive

====

Experiment: ATG_PXRE_CIS: Attagene CIS-FACTORIAL HepG2 Assay for human Pregnane X Receptor Element (PXRE) (AID 2282957)
Settings: HepG2 Attagene CIS-FACTORIAL PXRE reporter, mRNA; actives raise or lower the signal
Experimental: ATG_CIS is a cell-based, multiplexed-readout assay that uses HepG2, a human liver cell line, with measurements taken at 24 hours after chemical dosing in a 24-well plate.ATG_PXRE_CIS is one of 52 assay component(s) measured or calculated from the ATG_CIS assay. […] This assay endpoint, ATG_PXRE_CIS, was analyzed with bidirectional fitting relative to DMSO as the negative control and baseline of activity. […]
Calls of active or inactive are those of the source. How the source made its calls: active means hit-call score of the fitted dose curve at least 0.9, where 1 is the maximum; inactive means score below 0.9.
Could you please pick one outcome from this set? true (active), false (inactive)

Here are 3 compounds together with their reported answers.
>  <compound>
CNCCO

>  <label-class>
false

$$$$
>  <compound>
C[C@H]1C[C@@H]2[C@H]([C@@H](O)C[C@@]3(C)[C@H]2CC[C@]3(O)C(=O)CO)[C@@]2(C)C=CC(=O)C=C12

>  <label-class>
true

$$$$
>  <compound>
CNCCCC12CCC(c3ccccc31)c1ccccc12

>  <label-class>
false

$$$$

What did this assay record as the result for C=C(C)[C@@H]1CCC2=CC(=O)C[C@@H](C)[C@]2(C)C1 ?
true

What did this assay record as the result for O=C(O)CCSCCC(=O)O ?
true

What did this assay record as the result for CC(CN1c2ccccc2Sc2ccccc21)N(C)C (stereo not drawn) ?
true
